target_system: leukemia inhibitory factor receptor (LIFR) (Homo sapiens)
Construct: Recombinant human LIFR (His-Tag)
Sequence (P42702 45-1097): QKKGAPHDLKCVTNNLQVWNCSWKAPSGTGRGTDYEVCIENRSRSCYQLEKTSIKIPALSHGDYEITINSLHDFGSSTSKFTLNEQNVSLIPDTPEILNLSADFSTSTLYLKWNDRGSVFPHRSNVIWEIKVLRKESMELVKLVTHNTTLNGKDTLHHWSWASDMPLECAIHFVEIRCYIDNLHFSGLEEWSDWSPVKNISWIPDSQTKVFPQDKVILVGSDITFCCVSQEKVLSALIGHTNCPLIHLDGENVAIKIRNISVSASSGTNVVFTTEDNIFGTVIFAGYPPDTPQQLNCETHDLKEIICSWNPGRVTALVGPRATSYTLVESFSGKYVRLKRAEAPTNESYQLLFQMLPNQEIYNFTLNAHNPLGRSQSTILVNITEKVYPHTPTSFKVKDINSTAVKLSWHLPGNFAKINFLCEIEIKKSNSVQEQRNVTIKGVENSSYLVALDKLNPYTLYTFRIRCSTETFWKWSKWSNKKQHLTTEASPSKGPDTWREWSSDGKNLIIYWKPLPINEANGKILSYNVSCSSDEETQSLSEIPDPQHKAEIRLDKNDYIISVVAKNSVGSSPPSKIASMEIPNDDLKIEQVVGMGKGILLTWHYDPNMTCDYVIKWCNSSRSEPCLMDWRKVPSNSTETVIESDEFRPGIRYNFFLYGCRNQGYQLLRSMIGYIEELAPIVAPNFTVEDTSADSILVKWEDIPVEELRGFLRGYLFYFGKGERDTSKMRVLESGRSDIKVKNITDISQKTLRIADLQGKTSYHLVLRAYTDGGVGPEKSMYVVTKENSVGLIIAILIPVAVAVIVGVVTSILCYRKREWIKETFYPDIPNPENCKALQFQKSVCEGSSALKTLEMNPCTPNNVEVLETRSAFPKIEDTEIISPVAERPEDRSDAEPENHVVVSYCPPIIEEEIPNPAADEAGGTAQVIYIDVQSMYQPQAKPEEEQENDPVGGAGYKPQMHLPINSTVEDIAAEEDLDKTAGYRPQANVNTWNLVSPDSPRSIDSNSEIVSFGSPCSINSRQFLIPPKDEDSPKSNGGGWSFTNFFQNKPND
Sequence (P15018 23-202 partner): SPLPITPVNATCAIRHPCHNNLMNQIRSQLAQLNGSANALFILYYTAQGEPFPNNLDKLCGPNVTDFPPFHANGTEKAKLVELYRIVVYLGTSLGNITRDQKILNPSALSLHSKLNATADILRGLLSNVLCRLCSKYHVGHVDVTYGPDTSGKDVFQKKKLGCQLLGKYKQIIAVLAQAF
experimental_protocol: biochemical
Set-up: Alpha Screen inhibition of biotinylated LIF binding to His-tagged human LIFR
assay_conditions: LIF/LIFR binding
readout_type: inhibition at 50 µM (%)

INSERT INTO assay_data (compound, observed) VALUES
  ('CC1CCC2(C)CCC3(C)C(=CCC4C5(C)CCC(O)C(C)(C(=O)NCC(=O)O)C5CCC43C)C2C1C (stereo not shown) [compound 24, 24]', 86.9),
  ('CC1(C)CCC2(C)CCC3(C)C(=CCC4C5(C)CCC(O)C(C)(C(=O)NCC(=O)O)C5CCC43C)C2C1 (stereo not shown) [compound 22, 22]', 83.7),
  ('CC1CCC2(C)CCC3(C)C(=CCC4C5(C)CCC(O)C(C)(C(=O)NCCS(=O)(=O)O)C5CCC43C)C2C1C (stereo not shown) [compound 23, 23]', 88.5),
  ('CC1(C)CCC2(C)CCC3(C)C(=CCC4C5(C)CCC(O)C(C)(C(=O)NCCS(=O)(=O)O)C5CCC43C)C2C1 (stereo not shown) [compound 21, 21]', 67.7);

* * *

Test system: leukemia inhibitory factor receptor (LIFR)
experimental_protocol: cells
Design: LIFR/STAT3 luciferase reporter transactivation, LIF 10 ng/mL stimulated, Renilla normalized
assay_conditions: Homo sapiens, HepG2, 24 h; LIF 10 ng/mL stimulated; read-out: Transactivation Inhibition (%), 50 µM
Examples of molecules with documented inhibition at 50 µM follow.
Reply with just the number (in %).

INSERT INTO measurements (molecule, target_system, result_units, observed) VALUES
  ('CC1CCC2(C)CCC3(C)C(=CCC4C5(C)CCC(O)C(C)(C(=O)NCC(=O)O)C5CCC43C)C2C1C (stereo not shown)', 'leukemia inhibitory factor receptor (LIFR)', '%', 74.8),
  ('CC1(C)CCC2(C)CCC3(C)C(=CCC4C5(C)CCC(O)C(C)(C(=O)NCCS(=O)(=O)O)C5CCC43C)C2C1 (stereo not shown)', 'leukemia inhibitory factor receptor (LIFR)', '%', 68.8);

Lookup: Can you share its inhibition at 50 µM? I mean this molecule: CC1CCC2(C)CCC3(C)C(=CCC4C5(C)CCC(O)C(C)(C(=O)NCCS(=O)(=O)O)C5CCC43C)C2C1C (stereo not shown)
Found: 70.2

Lookup: Same lookup for CC1(C)CCC2(C)CCC3(C)C(=CCC4C5(C)CCC(O)C(C)(C(=O)NCC(=O)O)C5CCC43C)C2C1 (stereo not shown) , please.
Found: 58.3

* * *

target_system: leukemia inhibitory factor receptor (LIFR) (Homo sapiens)
Construct: Recombinant human LIFR (His-Tag)
experimental_protocol: biochemical
Design: Alpha Screen inhibition of biotinylated LIF binding to His-tagged human LIFR
assay_conditions: LIF/LIFR binding
readout_type: inhibition at 10 µM (%)

INSERT INTO measurements (molecule, readout_type, observed) VALUES
  ('CC1CCC2(C)CCC3(C)C(=CCC4C5(C)CCC(O)C(C)(C(=O)NCC(=O)O)C5CCC43C)C2C1C (stereo not shown)', 'inhibition at 10 µM', 48.7),
  ('CC1(C)CCC2(C)CCC3(C)C(=CCC4C5(C)CCC(O)C(C)(C(=O)NCCS(=O)(=O)O)C5CCC43C)C2C1 (stereo not shown)', 'inhibition at 10 µM', 45.4),
  ('CC1(C)CCC2(C)CCC3(C)C(=CCC4C5(C)CCC(O)C(C)(C(=O)NCC(=O)O)C5CCC43C)C2C1 (stereo not shown)', 'inhibition at 10 µM', 51.3),
  ('CC1CCC2(C)CCC3(C)C(=CCC4C5(C)CCC(O)C(C)(C(=O)NCCS(=O)(=O)O)C5CCC43C)C2C1C (stereo not shown)', 'inhibition at 10 µM', 52.9);
